system-tested: UniProtKB P30543
Sequence (P30543 whole entry): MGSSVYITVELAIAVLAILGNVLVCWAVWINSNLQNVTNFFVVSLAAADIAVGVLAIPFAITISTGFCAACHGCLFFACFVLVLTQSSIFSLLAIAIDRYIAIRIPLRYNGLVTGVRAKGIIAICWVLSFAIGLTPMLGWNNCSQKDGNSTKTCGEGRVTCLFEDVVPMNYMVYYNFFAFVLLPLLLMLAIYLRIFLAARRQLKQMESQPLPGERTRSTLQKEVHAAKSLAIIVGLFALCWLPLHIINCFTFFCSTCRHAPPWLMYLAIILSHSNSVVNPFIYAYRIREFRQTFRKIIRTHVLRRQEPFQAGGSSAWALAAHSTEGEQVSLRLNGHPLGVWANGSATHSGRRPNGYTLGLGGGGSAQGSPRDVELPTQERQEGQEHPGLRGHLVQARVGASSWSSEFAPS
quantity: pKi
Numbers only, as −log10 of the molar value.

| molecule | pKi |
| --- | --- |
| Cc1nnc(SC[C@@H](C)Nc2nc(Cl)nc3c2ncn3[C@@H]2O[C@H](CO)[C@@H](O)[C@H]2O)s1 [Example 3] | 6.00 |
| C[C@H](CSc1cccs1)Nc1nc(Cl)nc2c1ncn2[C@@H]1O[C@H](CO)[C@@H](O)[C@H]1O [Example 23] | 6.77 |
| C[C@H](CSc1nc2ccccc2s1)Nc1nc(F)nc2c1ncn2[C@@H]1O[C@H](CO)[C@@H](O)[C@H]1O [Example 13] | 5.59 |
| C[C@H](CSc1nc2cc(Cl)ccc2s1)Nc1nc(Cl)nc2c1ncn2[C@@H]1O[C@H](CO)[C@@H](O)[C@H]1O [Example 22] | 6.00 |

Query: Complete the entry with pKi for CC[C@H](CSc1nc2ccccc2s1)Nc1nc(Cl)nc2c1ncn2[C@@H]1O[C@H](CO)[C@@H](O)[C@H]1O [Example 15]
Reply: 6.02

###

Can you tell me Ratio A2 /A1 for the items I'm about to list?
system-tested: adenosine A1 receptor (Rattus norvegicus, UniProt P25099)
Construct: from tissue
Sequence (P25099 whole entry): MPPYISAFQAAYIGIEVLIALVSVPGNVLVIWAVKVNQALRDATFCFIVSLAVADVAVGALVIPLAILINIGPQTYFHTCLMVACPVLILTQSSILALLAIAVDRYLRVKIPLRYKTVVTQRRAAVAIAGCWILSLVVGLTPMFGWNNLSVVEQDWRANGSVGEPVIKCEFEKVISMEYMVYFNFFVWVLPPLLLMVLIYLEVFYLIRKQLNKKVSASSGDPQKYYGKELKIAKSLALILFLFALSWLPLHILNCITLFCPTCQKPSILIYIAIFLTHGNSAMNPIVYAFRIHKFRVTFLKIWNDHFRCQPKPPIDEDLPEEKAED
protocol-text: In vitro binding to adenosine A1 receptor, radioligand [^3 H]-(R)-PIA
condition-notes: ratio of A2 Ki to A1 Ki; single determinations only

Solved cases below.
| compound | Ratio A2 /A1 |
| --- | --- |
| C[C@H](CSc1nc2ccccc2s1)Nc1nc(F)nc2c1ncn2[C@@H]1O[C@H](CO)[C@@H](O)[C@H]1O [Example 13] | 756 |
| C[C@H](CSc1nc2cc(Cl)ccc2s1)Nc1nc(Cl)nc2c1ncn2[C@@H]1O[C@H](CO)[C@@H](O)[C@H]1O [Example 22] | 100 |
| Cc1nnc(SC[C@@H](C)Nc2nc(Cl)nc3c2ncn3[C@@H]2O[C@H](CO)[C@@H](O)[C@H]2O)s1 [Example 3] | 110 |
| C[C@H](CSc1n[nH]c(-c2ccccc2)n1)Nc1nc(Cl)nc2c1ncn2[C@@H]1O[C@H](CO)[C@@H](O)[C@H]1O [Example 27] | 355 |
| CC[C@H](CSc1nc2ccccc2s1)Nc1nc(Cl)nc2c1ncn2[C@@H]1O[C@H](CO)[C@@H](O)[C@H]1O [Example 15] | 136 |

// below: Ratio A2 /A1 requested for another compound
Query: Check adenosine A1 receptor (Rattus norvegicus, UniProt P25099) data and give Ratio A2 /A1 for C[C@H](CSc1cccs1)Nc1nc(Cl)nc2c1ncn2[C@@H]1O[C@H](CO)[C@@H](O)[C@H]1O [Example 23] .
Reply: 38

###

Assign Ki to each entry below.
system-tested: adenosine A1 receptor (Rattus norvegicus, UniProt P25099)
Construct: from tissue
protocol-text: In vitro binding to adenosine A1 receptor, radioligand [^3 H]-(R)-PIA
condition-notes: [^3 H]-(R)-PIA radioligand; single determinations only
One number for each entry, in nM.

| compound | recorded-measurement |
| --- | --- |
| C[C@H](CSc1cccs1)Nc1nc(Cl)nc2c1ncn2[C@@H]1O[C@H](CO)[C@@H](O)[C@H]1O [Example 23] | 4.5 |

We next turn to a different compound, shown below.
Query: Provide Ki, recorded with adenosine A1 receptor (Rattus norvegicus, UniProt P25099), of C[C@H](CSc1n[nH]c(-c2ccccc2)n1)Nc1nc(Cl)nc2c1ncn2[C@@H]1O[C@H](CO)[C@@H](O)[C@H]1O [Example 27]
Reply: 14
